- Test system: Plasmodium berghei
- Experiment Notes: Screen against P. berghei liver stage (PbLuc), transformed with Luciferase, at 10uM
- Assay type: functional, HepG2
- Protocol Conditions: tested at 10 uM
Among all 69,000 compounds or so, about 8,600 (12%) showed an effect of 50% or more. The list comes from a sample in which strong results are over-represented; it also holds close analogues and randomly drawn compounds.
Recorded Endpoint: INHIBITION (%)

1) CC(C)NC(=O)CC1COC2(CCN(Cc3cccs3)CC2)C1 (stereo unspecified) : 29.9
2) Cc1cnc2c(C(=O)N(C)Cc3cc(C4CC4)[nH]n3)cnn2c1 : 21.8
3) O=C(NCc1nnc2n1CCCCC2)N1CCC2(CCCCC2)C1 : 47.9
4) O=S(=O)(CCCN1CCCC(Cn2cncn2)C1)c1ccccc1 (stereo unspecified) : 7.67
5) COC[C@@]12CCC[C@@H]1CN(C(=O)COc1ccccc1OC)C2 : 19.5
6) Cc1ccsc1CNCC1CCCN1c1cccnn1 (stereo unspecified) : -36.25
7) O=C1CC2(CCN(c3nncs3)C2)CN1c1cccc(F)c1 (stereo unspecified) : -6.3
8) O=C(NCCc1nnc2n1CCCCC2)N1CCC2(CCCC2)CC1 : -56.9
9) CN(C)C(=O)CNC(=O)c1nc(C2CC2)n(-c2ccccc2Cl)n1 : -20.8
10) CC[C@@H]1N(CC2CC2)CCC[C@]12CCC(=O)N2CCOC : 4.2
11) CN1C(=O)C2(CCN(c3ncccc3C(=O)O)CC2)c2ccccc21 : -20.6
